Target: Shiga toxin 2 (Escherichia coli O157:H7) (UniProt P09385+P09386)
Test: E. coli 0.157:H7 Shiga Toxin SOP - stx2 screening assay
Type: functional
Parameters: scale not given: direction of the effect not stated beside the values
Conditions: 30 µM
Kindly state Percent Effect for each of the entries shown.
Give bare numbers, in %.

# O=C(c1cc(Cl)c2c(c1)OCO2)N1CCCC(n2ccnc2)C1 (stereo unspecified) with Shiga toxin 2 (Escherichia coli O157:H7) (UniProt P09385+P09386): Percent Effect is 4.72

List reported Percent Effect for each of these compounds:
1. Cc1cc(C2CCCN(CCCNS(C)(=O)=O)C2)n[nH]1 (stereo unspecified)
2. O=C(N[C@H]1CN[C@H]2CCCO[C@H]21)c1cscn1
3. CC(=O)N1CCN(c2cc(C3CN(C)CCO3)nc(C)n2)CC1 (stereo unspecified)
4. N#CCCN(CCC#N)C(=O)CN1CCCC1Cc1cccc(F)c1 (stereo unspecified)
5. CC(C)CN1CCN(C(=O)Nc2cc(C(F)(F)F)c[nH]c2=O)CC1
6. Cc1noc(C)c1CCC(=O)NC(C)c1nnc2n1CCC2 (stereo unspecified)
7. FC(F)(F)c1cccc(C2(CNCc3ccncc3)CCOCC2)c1

// result
[8.81, -0.964, -24.3, -0.707, 5.35, -3.03, -27.1]

* * *

Biological target: Aspartate--tRNA(Asp/Asn) ligase (Mycobacterium tuberculosis (strain ATCC 25618 / H37Rv)) (UniProt P9WFW3); further: in the data most compounds retested in dose-response had high values
Sequence (whole entry): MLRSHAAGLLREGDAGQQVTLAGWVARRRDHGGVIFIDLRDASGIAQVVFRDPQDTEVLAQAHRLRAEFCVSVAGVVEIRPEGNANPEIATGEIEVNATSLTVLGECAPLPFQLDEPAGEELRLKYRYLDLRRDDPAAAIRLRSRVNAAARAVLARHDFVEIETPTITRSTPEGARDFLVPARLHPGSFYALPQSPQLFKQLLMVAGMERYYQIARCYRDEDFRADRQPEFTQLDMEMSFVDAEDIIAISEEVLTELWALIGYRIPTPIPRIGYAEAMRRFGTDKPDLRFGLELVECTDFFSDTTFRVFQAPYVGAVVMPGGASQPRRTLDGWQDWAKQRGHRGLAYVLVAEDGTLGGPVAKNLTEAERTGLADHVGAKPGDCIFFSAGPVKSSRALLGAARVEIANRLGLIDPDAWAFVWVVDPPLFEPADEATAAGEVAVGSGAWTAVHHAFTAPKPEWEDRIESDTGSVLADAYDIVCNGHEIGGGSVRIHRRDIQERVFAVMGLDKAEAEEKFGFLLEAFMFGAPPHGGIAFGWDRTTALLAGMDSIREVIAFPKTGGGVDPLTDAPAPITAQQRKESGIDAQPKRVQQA
Test: Assay for Asp RNA synthetase-1 from Mycobacterium tuberculosis
Format: functional
Design: scale not given: direction of the effect not stated beside the values
Settings: 30 µM
Kindly state Percent Effect for each of the entries shown.
Numbers only, in %.

The molecule CCn1ccnc1CN1CCN(CC(O)c2ccccc2)CC1 (centres undefined) showed Percent Effect equal to -5.63

List reported Percent Effect for each of these molecules:
1. CS(=O)(=O)N1CCC(C(=O)NCCNc2ncccn2)CC1
2. COc1cc(N2CCCC(c3nccn3Cc3cscn3)C2)nc(N)n1 (centres undefined)

// result
-0.962
-2.33

* * *

Target: Aspartate--tRNA(Asp/Asn) ligase (Mycobacterium tuberculosis (strain ATCC 25618 / H37Rv)); further: in the data most compounds retested in dose-response had high values
Sequence (whole entry): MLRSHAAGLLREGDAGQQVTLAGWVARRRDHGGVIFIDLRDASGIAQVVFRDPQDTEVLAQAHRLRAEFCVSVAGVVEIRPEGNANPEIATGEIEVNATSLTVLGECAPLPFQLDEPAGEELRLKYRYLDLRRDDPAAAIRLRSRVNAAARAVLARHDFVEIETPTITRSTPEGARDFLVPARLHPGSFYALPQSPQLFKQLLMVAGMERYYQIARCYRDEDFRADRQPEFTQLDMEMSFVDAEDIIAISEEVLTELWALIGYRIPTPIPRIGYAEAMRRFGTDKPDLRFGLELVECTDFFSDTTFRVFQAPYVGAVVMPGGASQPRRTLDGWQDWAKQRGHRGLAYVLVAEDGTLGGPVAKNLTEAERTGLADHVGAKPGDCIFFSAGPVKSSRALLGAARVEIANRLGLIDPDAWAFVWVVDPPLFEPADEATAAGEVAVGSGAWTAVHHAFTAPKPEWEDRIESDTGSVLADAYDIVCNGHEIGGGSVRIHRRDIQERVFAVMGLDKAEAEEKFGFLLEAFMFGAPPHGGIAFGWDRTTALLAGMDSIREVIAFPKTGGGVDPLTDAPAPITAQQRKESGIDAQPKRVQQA
Assay: Assay for Asp RNA synthetase-1 from Mycobacterium tuberculosis
Type: functional
Parameters: scale not given: direction of the effect not stated beside the values
Details: 30 µM
experimental.endpoint: Percent Effect

Here is how some molecules turned out for Percent Effect.
# `CNC(=O)CCCNCc1c(C(C)C)nn(C)c1N(C)C` with Aspartate--tRNA(Asp/Asn) ligase (Mycobacterium tuberculosis (strain ATCC 25618 / H37Rv)): Percent Effect is 1.04%

# COc1ccc(CN(C)CC2CCCN2c2cccnn2)cc1F (stereo not drawn) with Aspartate--tRNA(Asp/Asn) ligase (Mycobacterium tuberculosis (strain ATCC 25618 / H37Rv)): Percent Effect is 0.346%

# `Cc1ccc(-n2nnc(C(=O)Nc3cc(C)nn3C)c2C2CC2)cc1` with Aspartate--tRNA(Asp/Asn) ligase (Mycobacterium tuberculosis (strain ATCC 25618 / H37Rv)): Percent Effect is -2.8%

List reported Percent Effect for each of these molecules:
1. COc1cc2nc(C)n(CC(=O)NCCCN(C)C)c(=O)c2cc1OC
2. Cc1cccc(CN2CC3(CCNCC3)OCC2=O)n1
3. CC(C)c1nc2n(n1)CC(NCc1ncc(-c3ccccc3)o1)CC2 (stereo not drawn)

// result
1: -0.232%; 2: 5.56%; 3: -5.88%

List reported Percent Effect for each of these molecules:
1. CC(C)S(=O)(=O)c1nnc(CCNC(=O)OC(C)(C)C)o1
2. CCOCCCNc1nc(O)cc(C2CC(=O)N(C)C2)n1 (stereo not drawn)
3. Cc1nc(-c2ccc(C(=O)O)cc2)cc(C2CCN(C(C)C)C2)n1 (stereo not drawn)
4. CCCC1CCCN(Cc2csc(-c3cnn(C)c3)n2)CC1 (stereo not drawn)
5. CC(NC(=O)CCCOc1ccccc1Cl)c1ccncc1 (stereo not drawn)
6. Cc1cc(CN(C)C(=O)C2CCCN(C(=O)c3cccs3)C2)no1 (stereo not drawn)

// result
1: 2.85%; 2: -1.77%; 3: 2.34%; 4: -1.75%; 5: 5.49%; 6: 5.71%

* * *

Target: Tyrosyl-tRNA synthetase, putative (Trypanosoma cruzi (strain CL Brener))
Assay: Trypanosoma cruzi tyrosyl tRNA synthetase (TcYRS) SOP
Assay type: functional
Design: scale not given: direction of the effect not stated beside the values
Conditions: 30 µM
experimental.endpoint: Percent Effect (%)
Give bare numbers, in %.

# Cc1cc(N2CCN3CCCCC3C2)n2nc(C)c(C)c2n1 (stereo unspecified) with Tyrosyl-tRNA synthetase, putative (Trypanosoma cruzi (strain CL Brener)): Percent Effect is 10.3

# `O=C1CC[C@H]2[C@H](CCN2Cc2ccccn2)N1CC1CCOCC1` with Tyrosyl-tRNA synthetase, putative (Trypanosoma cruzi (strain CL Brener)): Percent Effect is 2.5

# `O=C(c1cnn2c1OCCC2)N1CCC2(CC1)OCCO2` with Tyrosyl-tRNA synthetase, putative (Trypanosoma cruzi (strain CL Brener)): Percent Effect is 11.5

# `CCS(=O)(=O)N[C@@H]1CN(Cc2cc(C)on2)C[C@@H]2CCCO[C@@H]21` with Tyrosyl-tRNA synthetase, putative (Trypanosoma cruzi (strain CL Brener)): Percent Effect is 18.5

# `c1ccc(O[C@H]2CC[C@H]3[C@H]2OCCN3Cc2nccs2)nc1` with Tyrosyl-tRNA synthetase, putative (Trypanosoma cruzi (strain CL Brener)): Percent Effect is 8.64

List reported Percent Effect for each of these compounds:
1. COc1cccc(CNC(C)Cn2cccn2)c1OC (stereo unspecified)
2. Cn1cc(N2C(=O)CC[C@@H]3[C@H]2CCN3Cc2ccncc2)cn1
3. c1cncc(CO[C@H]2CO[C@@]3(CCN(Cc4ccoc4)C3)C2)c1
4. COc1cccc(CCNCc2c(C)nn(C)c2N(C)C)c1
5. Cc1oc(-c2ccco2)nc1CC(=O)N1CCN(C2CCC2)CC1
6. O=C(c1cscn1)N1CCN2C[C@H](OCc3cccnc3)C[C@H]2C1

// result
[0, 12.5, -2.56, 12.2, 7.06, 3.85]

* * *

Target: Aspartate--tRNA(Asp/Asn) ligase (Mycobacterium tuberculosis (strain ATCC 25618 / H37Rv)) (UniProt P9WFW3); further: in the data most compounds retested in dose-response had high values
Assay: Assay for Asp RNA synthetase-1 from Mycobacterium tuberculosis
Format: functional
Parameters: scale not given: direction of the effect not stated beside the values
Settings: 30 µM
experimental.endpoint: Percent Effect (%)
Give bare numbers, in %.

Here is how some molecules turned out for Percent Effect.
The molecule COc1ccccc1-c1noc(CN2CCCC2Cn2cccn2)n1 (centres undefined) showed Percent Effect equal to -7.54

The molecule Cc1cc(C)c(CNC(=O)NCC2CCCN2C)c(=O)[nH]1 (centres undefined) showed Percent Effect equal to -1.7

The molecule `Cc1noc(C)c1CN1CCO[C@H]2CN(CC3CC3)C[C@H]21` showed Percent Effect equal to -1.48

The molecule Cc1ccc(C(=O)NC(CN2CCCC2=O)c2ccccc2)c(=O)[nH]1 (centres undefined) showed Percent Effect equal to -6.44

The molecule Cc1cccc(-c2ccc(C(=O)NCC3CCOC3)c(=O)[nH]2)c1 (centres undefined) showed Percent Effect equal to 7.65

List reported Percent Effect for each of these molecules:
1. COc1ccc(NC(=O)C(c2cccc(F)c2)N2CCOCC2)cc1 (centres undefined)
2. CCn1nc2c(cc1=O)CN(Cc1nc(-c3ccccn3)no1)CC2
3. O=C(c1ccsc1)N1C[C@@H]2C[C@@H](c3nnc(C4CC4)o3)O[C@@H]2C1
4. CO[C@H]1CN(C(=O)c2ccc3oc(C)cc3c2)CC[C@@]12CCCO2
5. NC(=O)COc1cccc(C(=O)Nc2cnc3n2CCCC3)c1
6. Cc1cnn(C2CCCN(C(=O)c3ccnc(N(C)C)c3)C2)c1 (centres undefined)
7. CNC(=O)CS(=O)(=O)C1CCN(S(=O)(=O)C2CC2)CC1
8. CC(=O)NCC1CCN(C(=O)c2csc(-c3ccc(C)cc3C)n2)CC1

// result
5.63
29
6.08
1.12
-0.557
-5.57
1.09
5.3

List reported Percent Effect for each of these molecules:
1. Cc1ccc(C2CSCCN2C(=O)c2ccsc2)o1 (centres undefined)
2. CCOC(=O)CCC(=O)N1CCC(Oc2ccc(C(F)(F)F)cn2)CC1

// result
[3.37, -1.91]

List reported Percent Effect for each of these molecules:
1. COCC1Cn2nnc(-c3cnn(C)c3)c2CN1Cc1ccc(C)s1 (centres undefined)
2. O=C(Nc1cc(F)ccc1OCC1CCCO1)c1ccccn1 (centres undefined)
3. CCCc1n[nH]c(C2CN(Cc3nnc(C4CC4)o3)CCO2)n1 (centres undefined)
4. CN(Cc1ccccc1)CC(O)Cn1cnc2ccsc2c1=O (centres undefined)

// result
1. 1.73
2. 2.54
3. -8.48
4. -1.75

List reported Percent Effect for each of these molecules:
1. CCc1nccn1C1CCCN(C(=O)c2cnn3ccc(C)nc23)C1 (centres undefined)
2. O=C(c1ccc(Br)o1)N1CCCCC1Cn1cccn1 (centres undefined)
3. COc1ccc2cc(C(=O)N3CCCCC3Cn3cccn3)[nH]c2c1 (centres undefined)
4. O=C(Cc1cccs1)N1CC[C@H]2[C@@H]1CCC(=O)N2c1cccnc1
5. CCc1nccn1C1CCCN(C(=O)c2cnc3ccccc3n2)C1 (centres undefined)

// result
1. 0.632
2. 4.78
3. -2.15
4. -1.62
5. 1.02
